# EXPERIMENTAL_TARGET: human RIP1 kinase domain (2-375) (Homo sapiens (Human), UniProt Q13546)
# Sequence (Q13546 2-375): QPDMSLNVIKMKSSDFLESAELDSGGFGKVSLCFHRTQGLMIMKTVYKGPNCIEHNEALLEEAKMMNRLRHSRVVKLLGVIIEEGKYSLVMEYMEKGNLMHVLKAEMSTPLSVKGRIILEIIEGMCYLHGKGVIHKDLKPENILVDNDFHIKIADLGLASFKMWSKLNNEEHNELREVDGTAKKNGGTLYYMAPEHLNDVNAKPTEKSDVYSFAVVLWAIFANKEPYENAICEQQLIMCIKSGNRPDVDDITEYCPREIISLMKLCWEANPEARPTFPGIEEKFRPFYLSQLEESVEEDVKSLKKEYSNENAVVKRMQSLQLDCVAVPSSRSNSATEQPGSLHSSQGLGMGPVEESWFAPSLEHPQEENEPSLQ
# ASSAY_OVERVIEW: biochemical
# Format: biochemical
# TEST_SETTINGS: Table 1; apparent Ki (Morrison tight-binding fit); 50 nM RIP1 kinase domain, 50 uM ATP, 2 hours incubation; read-out: RIP1 Ki
pKi: −log10 of the molar value.
Decide using pKi: a value greater than or equal to 6 is y, a smaller one is n.

COMPOUND	CLASS_LABEL
CN1C(=O)[C@@H](NC(=O)c2nnc3ccc(C(F)(F)F)nn23)COc2ccccc21 [Example 81]	y
CN1C(=O)[C@@H](NC(=O)c2n[nH]c3c2CCC2(CC2)C3)COc2ccccc21 [Example 2]	n
CN1C(=O)[C@@H](NC(=O)c2ncn3ccc(C(F)(F)F)cc23)COc2ccccc21 [Example 37]	y
CN1C(=O)[C@@H](NC(=O)c2cc3n(n2)CCCN(c2ccccc2)C3)COc2ccccc21 [Example 6]	y
O=C(N[C@H]1COc2ccccc2NC1=O)c1n[nH]c2c1CC1CC1C2 (some centres unmarked) [Example 4]	n
CN1C(=O)[C@@H](NC(=O)c2cc3c(cn2)CCCC3)COc2ccccc21 [Example 23]	n
CC1CCc2[nH]nc(C(=O)N[C@H]3COc4ccccc4NC3=O)c2C1 (some centres unmarked) [Example 57]	y
O=C(N[C@H]1COc2ccccc2NC1=O)c1n[nH]c2c1C1CC1CC2 (some centres unmarked) [Example 54]	n
C[C@H]1CCc2onc(C(=O)N[C@H]3COc4ccccc4N(C)C3=O)c2C1 [Example 68]	y
O=C(N[C@H]1COc2[nH]ncc2NC1=O)c1cn(Cc2ccc(F)c(F)c2)cn1 [Example 17]	n
CN1C(=O)[C@@H](NC(=O)c2noc3c2CC(C(C)(C)C)CC3)COc2ccccc21 (some centres unmarked) [Example 64]	y
CC(C)(C)C1CCc2[nH]nc(C(=O)N[C@H]3CCc4cc(Cl)ccc4NC3=O)c2C1 (some centres unmarked) [Example 47]	y
CN1C(=O)[C@@H](NC(=O)c2n[nH]c3c2CCCCC3)COc2ccccc21 [Example 44]	n
CN1C(=O)[C@@H](NC(=O)c2nnc3ccc(C(F)(F)F)cn23)COc2ccccc21 [Example 82]	y
O=C(N[C@H]1CCc2cc(Cl)ccc2NC1=O)c1n[nH]c2c1CCC2 [Example 49]	n
CC(C)(C)C1CCc2onc(C(=O)N[C@H]3COc4ccccc4NC3=O)c2C1 (some centres unmarked) [Example 65]	y
